Assay Procedure: Inhibition of HIV-1 reverse transcriptase E138K mutant infected in human MT4 cells assessed as protection against virus-induced cytopathic effect measured at 5 days post infection by MTT assay
Property Measured: EC50 (nM)
Entry rule: numbers only, all in nM.

Give the measured EC50 of `N#Cc1ccc(Nc2nccc(OCc3ccccc3)n2)cc1` .
1800

Give the measured EC50 of `N#Cc1ccc(Nc2nccc(OCc3cccc(F)c3)n2)cc1` .
1880

Give the measured EC50 of `N#Cc1ccc(Nc2nccc(NCc3ccccn3)n2)cc1` .
240

###

Assay Procedure: Inhibition of HIV-1 reverse transcriptase E138K mutant infected in human MT4 cells assessed as protection against virus-induced cytopathic effect measured at 5 days post infection by MTT assay
Property Measured: pEC50
Reminder that pEC50 means the negative base-10 logarithm of the concentration expressed in mol/L.

Give the measured pEC50 of `N#Cc1ccc(Nc2nccc(OCc3cccc4ccccc34)n2)cc1` .
6.52

Give the measured pEC50 of `N#Cc1ccc(Nc2nccc(OCc3ccc4ccccc4c3)n2)cc1` .
5.00

Give the measured pEC50 of `Cc1cccc(COc2ccnc(Nc3ccc(C#N)cc3)n2)c1` .
5.93

Give the measured pEC50 of `N#Cc1ccc(Nc2nccc(OCc3cccc(Br)c3)n2)cc1` .
5.30

Give the measured pEC50 of `N#Cc1ccc(Nc2nccc(OCc3ccc(Br)cc3F)n2)cc1` .
4.45

Give the measured pEC50 of `COc1cc(COc2ccnc(Nc3ccc(C#N)cc3)n2)cc(OC)c1` .
6.64

Give the measured pEC50 of `COc1cccc(COc2ccnc(Nc3ccc(C#N)cc3)n2)c1` .
5.96

Give the measured pEC50 of `Cc1ccc(COc2ccnc(Nc3ccc(C#N)cc3)n2)cc1` .
5.14

Give the measured pEC50 of `N#Cc1ccc(Nc2nccc(OCc3ccccc3F)n2)cc1` .
6.52

Give the measured pEC50 of `COc1ccccc1COc1ccnc(Nc2ccc(C#N)cc2)n1` .
5.68

###

Could you please report measured pEC50 for the items listed next?
Assay Procedure: Inhibition of HIV1 RES056 reverse transcriptase K103N/Y181C double mutant infected in human MT4 cells assessed as protection against virus-induced cytopathic effect measured at 5 days post infection by MTT assay
pEC50: −log10 of the molar value.

Give the measured pEC50 of `N#Cc1ccc(Nc2nccc(OCc3ccccc3Cl)n2)cc1` .
< 3.84

Give the measured pEC50 of `N#Cc1ccc(Nc2nccc(OCc3ccccc3Br)n2)cc1` .
< 3.89

Give the measured pEC50 of `N#Cc1ccc(Nc2nccc(OCc3ccccc3C(F)(F)F)n2)cc1` .
< 3.76

Give the measured pEC50 of `N#Cc1ccc(Nc2nccc(OCc3cccc(Cl)c3)n2)cc1` .
< 3.82

Give the measured pEC50 of `Cc1ccc(COc2ccnc(Nc3ccc(C#N)cc3)n2)cc1` .
< 4.09

Give the measured pEC50 of `N#Cc1ccc(Nc2nccc(OCc3cccnc3)n2)cc1` .
< 5.19

###

Assay Procedure: Inhibition of HIV-1 reverse transcriptase E138K mutant infected in human MT4 cells assessed as protection against virus-induced cytopathic effect measured at 5 days post infection by MTT assay
Could you please report measured EC50 for the items listed next?

Give the measured EC50 of `N#Cc1ccc(Nc2nccc(OCc3ccccc3Br)n2)cc1` .
> 130 µM

Give the measured EC50 of `N#Cc1ccc(Nc2nccc(OCc3cccc(Cl)c3)n2)cc1` .
> 153 µM

Give the measured EC50 of `N#Cc1ccc(Nc2nccc(OCc3cccc(C#N)c3)n2)cc1` .
> 4.1 µM

###

Assay Procedure: Inhibition of HIV-1 reverse transcriptase E138K mutant infected in human MT4 cells assessed as protection against virus-induced cytopathic effect measured at 5 days post infection by MTT assay
Property Measured: EC50

Give the measured EC50 of `N#Cc1ccc(Nc2nccc(OCc3cccc(C(F)(F)F)c3)n2)cc1` .
> 118 µM

Give the measured EC50 of `N#Cc1ccc(Nc2nccc(OCc3ccc(Cl)cc3)n2)cc1` .
> 156 µM

Give the measured EC50 of `N#Cc1ccc(Nc2nccc(OCc3ccc(F)cc3)n2)cc1` .
> 81 µM

Give the measured EC50 of `Cc1cc(C)nc(Sc2ccnc(Nc3ccc(C#N)cc3)n2)n1` .
> 224 µM

Give the measured EC50 of `Cc1ccccc1COc1ccnc(Nc2ccc(C#N)cc2)n1` .
> 12 µM

Give the measured EC50 of `N#Cc1ccc(Nc2nccc(OCc3ccccc3C(F)(F)F)n2)cc1` .
> 173 µM

Give the measured EC50 of `N#Cc1ccc(Nc2nccc(OCc3ccccc3Cl)n2)cc1` .
> 146 µM

Give the measured EC50 of `N#Cc1ccc(Nc2nccc(OCc3ccc(Br)cc3)n2)cc1` .
> 16 µM

Give the measured EC50 of `N#Cc1ccc(Nc2nccc(OCc3ccccc3C#N)n2)cc1` .
> 113 µM

Give the measured EC50 of `COc1ccc(COc2ccnc(Nc3ccc(C#N)cc3)n2)cc1` .
> 102 µM

Give the measured EC50 of `N#Cc1ccc(Nc2nccc(OCc3cccnc3)n2)cc1` .
> 6.4 µM

Give the measured EC50 of `CN(C)c1ccnc(Nc2ccc(C#N)cc2)n1` .
> 34 µM

Give the measured EC50 of `N#Cc1ccc(COc2ccnc(Nc3ccc(C#N)cc3)n2)cc1` .
> 209 µM

Give the measured EC50 of `N#Cc1ccc(Nc2nccc(OCc3cc(F)ccc3Br)n2)cc1` .
> 190 µM

Measured values drawn from BindingDB's records for doi:10.1016/j.bmc.2017.03.009 for this set.
